Attribution: patent US7101537B2

Test: maxima of UV-A and UV-B absorption of quinoxaline derivatives in 2-propanol
Format: physicochemical
Conditions: 1 mg of substance per 100 ml of solvent, wavelength of UV-A maximum
property: UV-A (400 320 nm) λ[nm]
The answer is to be given in nm; state only the numeric part.

Query: Fill in the blank: the reported UV-A (400 320 nm) λ[nm] of "CC(=O)c1ccc(-n2c(-c3ccccc3)cc3nc4ccccc4nc32)cc1" is ____.
Response: 359.0

Query: UV-A (400 320 nm) λ[nm]; subject: "Cc1nc2nc3ccccc3nc2[nH]1"
Response: 327.5

Query: Using the record for "c1ccc2nc3[nH]ccc3nc2c1" , report its UV-A (400 320 nm) λ[nm].
Response: 338.0

Query: Could you share which UV-A (400 320 nm) λ[nm] value was measured for "O=C(O)c1ccc(-n2c(-c3ccccc3)cc3nc4ccccc4nc32)cc1" ?
Response: 358.0
